Values were extracted from ChEMBL document CHEMBL5143596.

- test-details: Metabolic stability in rat plasma assessed as half life
- Assay type: ADME, cell-free
metric: half-life

What value of half-life has been recorded for this entry: Cc1cc(O)cc(C)c1C[C@H](N)C(=O)N[C@H](C)C(=O)NCC(=O)N(C)[C@@H](Cc1ccccc1)C(=O)N1CCC[C@H]1C(=O)N[C@@H](CC(C)C)C(=O)N[C@@H](Cc1c[nH]c2ccccc12)C(=O)NCc1cc(C(F)(F)F)cc(C(F)(F)F)c1
> 1440 min
